- Test system: CCRIS mutagenicity, Ames/micronucleus/aberration tests
- testName: CCRIS mutagenicity studies
- reportedConditions: Test System: AMES SALMONELLA TYPHIMURIUM; Strain/Indicator: TA100; Metabolic Activation: S-9; Method: STANDARD PLATE
The source made the active and inactive calls. The rule behind the calls is not given here.
propertyMeasured: mutagenic call

Study these solved cases before continuing.
- cpdSmiles: "CCCCC(=O)N=c1sn(C(=O)CCCC)c2ccc([N+](=O)[O-])cc12"
  mutagenic call: "active; positive"
- cpdSmiles: "CC(C)CC(=O)N=c1sn(C(=O)CC(C)C)c2ccc([N+](=O)[O-])cc12"
  mutagenic call: "active; positive"
- cpdSmiles: "O=[N+]([O-])c1ccc(-c2ccccc2)cc1"
  mutagenic call: "active; positive"
- cpdSmiles: "Cc1ccc(/C=C/c2ccc([N+](=O)[O-])cc2)cc1"
  mutagenic call: "active; positive"
- cpdSmiles: "CN1CC[C@@]2(C)c3cc(O)ccc3N(C)[C@@H]12"
  mutagenic call: "inactive; negative"
- cpdSmiles: "O=C(Nc1snc2ccccc12)c1ccccc1"
  mutagenic call: "active; positive"

--- query ---
Inquiry: Fill blank: measured mutagenic call of the molecule `COc1ccc(/C=C/c2ccc(N)cc2)cc1` is ____.
Reply text: active; positive

====

- System: CCRIS mutagenicity, Ames/micronucleus/aberration tests
- testName: CCRIS mutagenicity studies
- reportedConditions: Test System: E. COLI; Strain/Indicator: WP2 UVRA; Metabolic Activation: NONE; Method: STANDARD PLATE
Activity calls are given as the source filed them. How the calls were made is not given here.
Please answer using one outcome listed in TRUE = active, FALSE = inactive

Inquiry: Could you kindly confirm the outcome this assay logged for `Nc1ncc2[nH]cnc2n1` ?
Reply text: TRUE

Inquiry: Again, but for `O=C1CN(/N=C/c2ccc([N+](=O)[O-])o2)C(=O)N1`
Reply text: TRUE

Inquiry: Here is the next molecule: `COc1ccc(N)cc1`
Reply text: FALSE

Inquiry: # iterate: CC(CNC(=O)c1cccnc1)NC(=O)c1cccnc1 (stereo unspecified)
Reply text: FALSE

Inquiry: Would you kindly repeat that for `CN(C)N=Nc1ccc(C(=O)O)cc1` ?
Reply text: TRUE

Inquiry: Moving on to the next molecule: `CN(C)c1ccc(C(=O)c2ccc(N(C)C)cc2)cc1`
Reply text: FALSE

Inquiry: And what about the molecule `Nc1ccc2ccccc2c1` ?
Reply text: FALSE

Inquiry: Lookup `CN(C)/N=N/c1nc[nH]c1C(N)=O`
Reply text: TRUE

Inquiry: Repeat for the following molecule: `O=Nc1ccc(NO)cc1`
Reply text: FALSE

Inquiry: What about this molecule? `CC(=O)OC/N=[N+](/C)[O-]`
Reply text: FALSE

Inquiry: Consider next the molecule `[2H]C([2H])([2H])N=NO` in the same way.
Reply text: TRUE

Inquiry: // next record `CCOP(=S)(OCC)Oc1cc(C)nc(C(C)C)n1`
Reply text: FALSE

Inquiry: Another molecule to check: CS(=O)CCC(=O)N1[C@@H](c2ccccc2O)SC[C@H]1C(=O)O (stereo partly specified)
Reply text: FALSE

Inquiry: Same question for `Nc1ccc(Cl)c(N)c1` please.
Reply text: FALSE

Inquiry: Ok, now `Nc1nc(NO)c2[nH]cnc2n1`
Reply text: TRUE

Inquiry: Now give it for `[Cl][Cu][Cl]` too.
Reply text: TRUE

====

- System: CCRIS mutagenicity, Ames/micronucleus/aberration tests
- testName: CCRIS mutagenicity studies
- reportedConditions: Test System: AMES SALMONELLA TYPHIMURIUM; Strain/Indicator: TA100; Metabolic Activation: NONE; Method: STANDARD PLATE
Active and inactive are the calls of the source. No rule for the calls is given here.
The reply should be one of these categories: active, inactive

Inquiry: Recorded test outcome, item `O=C1C(=O)c2cccc3cccc1c23`
Reply text: inactive

Inquiry: Entry `c1ccc2c(c1)C1OOC2c2ccccc21` please
Reply text: inactive

Inquiry: Now the same for `CC(=O)ON(C(C)=O)c1ccccc1C`
Reply text: inactive

Inquiry: Repeat for the following molecule: `Cc1ccc(NCCO)cc1O`
Reply text: inactive

Inquiry: Please give the result for O=C(NCc1ccccc1)C(Br)c1ccccc1 (stereo not drawn) too.
Reply text: inactive

Inquiry: Now the molecule `O=C(O)/C(Cl)=C(\CO)C(Cl)Cl`
Reply text: active

Inquiry: Note, next up: `COc1ccc(-c2nc(-c3ccccc3)c(-c3ccccc3)[nH]2)cc1OC`
Reply text: active

Inquiry: Query `O=c1[nH]c(=O)[nH]c(=O)[nH]1` next
Reply text: inactive

====

- Test system: CCRIS mutagenicity, Ames/micronucleus/aberration tests
- testName: CCRIS mutagenicity studies
- reportedConditions: Test System: AMES SALMONELLA TYPHIMURIUM; Strain/Indicator: TA100; Metabolic Activation: RAT, LIVER, S-9, PHENOBARBITAL AND BETA-NAPHTHOFLAVONE; Method: PREINCUBATION
Activity calls are given as the source filed them. How the calls were made is not given here.
Respond only with the outcome that fits, drawn from active, inactive

Inquiry: Hi team, can someone confirm the assay call for `CCCCOC(C)=O` ?
Reply text: inactive

Inquiry: What do you get for `NCCNC(=O)c1ccc(Cl)cn1` ?
Reply text: inactive

Inquiry: Then what about the molecule `CCOCCCl` ?
Reply text: inactive

Inquiry: What would you report for `COc1cc2ccnc3c2c(c1OC)-c1ccccc1C3=O` ?
Reply text: active

Inquiry: Next molecule up: `COc1ccc(NC(C)=O)cc1N`
Reply text: active

Inquiry: Follow-up item: `CCCCCCCCO`
Reply text: inactive

Inquiry: Continue with `COc1cc(NCCCCCNC(C)C)c2ncccc2c1`
Reply text: inactive

Inquiry: Would you mind doing `CC(C)(C)S(=O)(=O)C[C@@H](Cc1ccccc1)C(=O)N[C@@H](Cc1cnc[nH]1)C(=O)N[C@@H](CC1CCCCC1)[C@@H](O)[C@@H](O)C1CC1` as well?
Reply text: inactive

Inquiry: Likewise for `C[N+](C)(C)CCO` ?
Reply text: inactive

Inquiry: // repeat for `C=C(C)CC(C)(C)C` and report
Reply text: inactive

====

- System: CCRIS mutagenicity, Ames/micronucleus/aberration tests
- testName: CCRIS mutagenicity studies
- reportedConditions: Test System: AMES SALMONELLA TYPHIMURIUM; Strain/Indicator: TA98; Metabolic Activation: HAMSTER, LIVER, S-9, AROCLOR 1254 (30%); Method: PREINCUBATION
Activity calls are given as the source filed them. No rule for the calls is given here.
Your reply should match one of these outcome classes. active, inactive

Inquiry: Record lookup: outcome of this test for `CCN(N=O)C(N)=O` ?
Reply text: active

Inquiry: Further, for `CCCSC(=O)Cl` ?
Reply text: inactive

Inquiry: Please give the result for `Nc1ccc(N)c2ccccc12` too.
Reply text: active

Inquiry: Would you kindly repeat that for `Nc1ccc2ccccc2c1` ?
Reply text: active

Inquiry: Now the same for `COc1ccc(N=[N+]([O-])c2ccc(OC)cc2)cc1`
Reply text: inactive

Inquiry: Same question, `CCCCOCCOCCSC#N` this time
Reply text: inactive

Inquiry: Let us now turn to COC(=O)C(c1ccccc1)C1CCCCN1 (centres undefined)
Reply text: inactive

Inquiry: Likewise for `COC[CH2][Hg][Cl]` ?
Reply text: inactive

Inquiry: What would you report for `C=CC(=O)OC` ?
Reply text: inactive

====

- System: CCRIS mutagenicity, Ames/micronucleus/aberration tests
- testName: CCRIS mutagenicity studies
- reportedConditions: Test System: E.COLI; Strain/Indicator: WP2UVRA/PKM101; Metabolic Activation: RAT LIVER S-9, PHENOBARBITAL AND BETA-NAPHTHOFLAVONE; Method: PREINCUBATION
The source made the active and inactive calls. No rule for the calls is given here.
Mark one answer only. Choices: active, inactive

Inquiry: Hi, do you know how `OCCCCCCO` came out in this test?
Reply text: inactive

Inquiry: Now consider `COc1ccc(N)cc1` and answer again.
Reply text: inactive

Inquiry: Repeat with COC(C)CCO (stereo not drawn)
Reply text: inactive

Inquiry: Entry to check: `NCCCN1CCN(CCCN)CC1`
Reply text: inactive

Inquiry: Now consider `CCNNCC` .
Reply text: inactive

Inquiry: `CCCCCCCCCCCCCCCCCC(=O)NCCNC(=O)CCCCCCCCCCCCCCCCC` ?
Reply text: inactive

Inquiry: Note, next up: `O=S(O)CO`
Reply text: inactive

Inquiry: What about `N[C@@H](CC(=O)O)C(=O)O` ?
Reply text: inactive

Inquiry: Again, but for `C=C1CC(=O)O1`
Reply text: inactive

Inquiry: What do you have for `CCOC(=O)CBr` ?
Reply text: active

Inquiry: Item: `CN(C)N`
Reply text: inactive

Inquiry: Now consider `CCCCCCCCBr` and answer again.
Reply text: inactive

Inquiry: Query `ClCc1ccc(Cl)cc1` next
Reply text: inactive

====

- Test system: CCRIS mutagenicity, Ames/micronucleus/aberration tests
- testName: CCRIS mutagenicity studies
- reportedConditions: Test System: AMES SALMONELLA TYPHIMURIUM; Strain/Indicator: TA100; Metabolic Activation: RAT, LIVER, S-9, AROCLOR 1254 (30%); Method: PREINCUBATION
Activity calls are given as the source filed them. The rule behind the calls is not given here.
# valid calls are active, inactive; nothing else

Inquiry: Record lookup: outcome of this test for `COc1ccc(N=[N+]([O-])c2ccc(OC)cc2)cc1` ?
Reply text: inactive

Inquiry: Consider next the compound `CCCCOCCOCCSC#N` in the same way.
Reply text: inactive

Inquiry: Please do the same for `CCCSC(=O)Cl` as well.
Reply text: inactive

Inquiry: `CN(C)c1ccc(N(C)C)cc1` ?
Reply text: active

Inquiry: Consider next the compound `O=[N+]([O-])c1ccccc1Nc1ccccc1` in the same way.
Reply text: inactive
